test system: NCI-H446 (Small Cell Lung Carcinoma); assay: combination Emax (second highest fraction inhibited in the dose matrix, 72 h); higher = more inhibition; extreme values may be limits of the assay
Field: combination Emax. Provide a value for each of the molecules that follow.
One number for each entry.

INSERT INTO measurements (molecule, readout_value) VALUES
  ('C=CCn1c(=O)c2cnc(Nc3ccc(N4CCN(C)CC4)cc3)nc2n1-c1cccc(C(C)(C)O)n1 [AZD1775] + O=C(c1cc(Cc2n[nH]c(=O)c3ccccc23)ccc1F)N1CCN(C(=O)C2CC2)CC1 [Olaparib] (first compound max 1 µM, partner max 10 µM)', 0.778);

Query: combination Emax; subject: COc1nnc2ccc(N3CCC(c4ccc(OCCN5CCN(C)C(=O)[C@H]5C)cc4)CC3)nn12 [AZD5153] + C[C@@H]1COCCN1C2=NC(=NC(=C2)C3(CC3)[S@](=N)(=O)C)C4=C5C=CNC5=NC=C4 [AZD6738] (first compound max 1 µM, 7x7, partner max 10 µM)
Reply: 0.951

###

test system: WM278 (Melanoma); experiment: combination Emax (second highest fraction inhibited in the dose matrix, 72 h); higher = more inhibition; extreme values may be limits of the assay
Field: combination Emax. Provide a value for each of the molecules that follow.

Use the examples below as a reference point.
INSERT INTO measurements (molecule, readout_value) VALUES
  ('Cc1c2c(nn1C)CSCc1cc(n(C)n1)CSc1cc(c3ccccc3c1)OCCCc1c(C(=O)O)n(C)c3c-2c(Cl)ccc13 [AZD5991] + Cn1cnc2c(F)c(Nc3ccc(Br)cc3Cl)c(C(=O)NOCCO)cc21 [Selumetinib] (first compound max 1 µM, 7x7, partner max 3 µM)', 0.648),
  ('CN(CCO)CC[C@H](CSc1ccccc1)Nc1ccc(S(=O)(=O)NC(=O)c2ccc(N3CCC([C@@H](O)c4ccccc4-c4ccc(Cl)cc4)CC3)cc2)cc1S(=O)(=O)C(F)(F)F [AZD4320] + Cc1cc2ncnn2cc1Nc1ncc2c(n1)n(C1CCOCC1)c(=O)n2C [AZD7648] (first compound max 1 µM, 7x7, partner max 10 µM)', 0.555);

Now examine the next entry.
Query: If you can, please state the reported combination Emax value of Cn1cnc2c(F)c(Nc3ccc(Br)cc3Cl)c(C(=O)NOCCO)cc21 [Selumetinib] + CCN(CCO)CCCOc1ccc2c(Nc3cc(CC(=O)Nc4cccc(F)c4)[nH]n3)ncnc2c1 [AZD2811] (first compound max 10 µM, 7x7, partner max 1 µM) .
Reply: 0.581

###

Give combination Emax for every item shown.
test system: LXF-289 (Lung Adenocarcinoma); assay: combination Emax (second highest fraction inhibited in the dose matrix, 72 h); higher = more inhibition; extreme values may be limits of the assay
Answers are plain numbers.

INSERT INTO measurements (compound, readout_value) VALUES
  ('NC1(C(=O)N[C@@H](CCO)c2ccc(Cl)cc2)CCN(c2ncnc3[nH]ccc23)CC1 [Capivasertib] + Cn1cnc2c(F)c(Nc3ccc(Br)cc3Cl)c(C(=O)NOCCO)cc21 [Selumetinib] (first compound max 10 µM, 7x7, partner max 10 µM)', 0.62);

Consider the record given below.
Query: Give LXF-289 (Lung Adenocarcinoma) combination Emax for CN(C)CCCOc1ccc(-c2ccc3ncc4c(c3c2)n(C2CCOCC2)c(=O)n4C)cn1 [AZD0156] + O=C(c1cc(Cc2n[nH]c(=O)c3ccccc23)ccc1F)N1CCN(C(=O)C2CC2)CC1 [Olaparib] (first compound max 3 µM, partner max 3 µM)
Reply: 0.4
